Reported values of Binding Signal (fold over 6E7 parental antibody) for individual entries
# target.or.system: T1, human TREM2 (triggering receptor expressed on myeloid cells 2) (human) (UniProt Q9NZC2)
# T1 sequence (looked up): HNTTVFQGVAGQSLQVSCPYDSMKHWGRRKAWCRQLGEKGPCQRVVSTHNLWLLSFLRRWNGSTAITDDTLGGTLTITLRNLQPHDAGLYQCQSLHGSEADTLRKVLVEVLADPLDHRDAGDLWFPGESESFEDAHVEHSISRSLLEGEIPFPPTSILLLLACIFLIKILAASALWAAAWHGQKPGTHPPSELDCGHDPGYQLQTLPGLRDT
# test.protocol: 1st screen, 10 nM Ab
All answers are understood in fold, so give the number only.

[
  {
    "binder": "6E7 antibody affinity modulation variant V39 (antibody, V domains shown) VH: EVQLVQSGAEVKKPGESLKISCKGSGYSFGSYWIAWVRQMPGKGLEWMGIIYPGDSDTRYNPSFQGQVTISADKSISTAYLQWSSLKASDTAMYFCARGRTFYYDSSDYFDYWGQGTLVTVSS VL: DIQMTQSPSSVSASVGDRVTITCRASQGISSWLAWYQQKPGKAPKLLIYAASSLVNGVPSRFSGSGSGTDFTLTISSLQPEDFATYFCQQADSSPRTFGQGTKLEIK",
    "experimental.result": 6.15
  },
  {
    "binder": "6E7 antibody affinity modulation variant V15 (antibody, V domains shown) VH: EVQLVQSGAEVKKPGESLKISCKGSGYSFASYWIAWVRQMPGKGLEWMGTIYPGDSDTRYSPSFQGQVTISADKSISTAYLQWSSLKASDTAMYFCARSRTFYYDSSDYFDYWGQGTLVTVSS VL: DIQMTQSPSSVSASVGDRVTITCRASQGISSWLAWYQQKPGKAPKLLIYAASWLQNGVPSRFSGSGSGTDFTLTISSLQPEDFATYFCQQADSYPRTFGQGTKLEIK",
    "experimental.result": 5.23
  }
]

query: // lookup Binding Signal (fold over 6E7 parental antibody) for 6E7 antibody affinity modulation variant V40 (antibody, V domains shown) VH: EVQLVQSGAEVKKPGESLKISCKGSGYSFGSYWIAWVRQMPGKGLEWMGIIYPGDSDVRYSPSFQGQVTISADKSISTAYLQWSSLKASDTAMYFCARQRTFYYDSSDYSDYWGQGTLVTVSS VL: DIQMTQSPSSVSASVGDRVTITCRASQGISSWLAWYQQKPGKAPKLLIYAASSLQLGVPSRFSGSGSGTDFTLTISSLQPEDFATYFCQQADRFPRTFGQGTKLEIK
result: 4.48
